The measurements presented in this section are drawn from patent US20190233498A1.

TARGET_OR_SYSTEM: T1, human PACAP38 (human, not fully specified; C-terminal lysine is amidated; N-terminal or C-terminal biotin in the HTRF and PC-12 cell binding assays)
T1 construct: synthetic peptide, bought; also called huPACAP (1-38)
T1 peptide: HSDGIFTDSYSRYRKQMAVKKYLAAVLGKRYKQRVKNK
PROTOCOL: SPR, Ab immobilised
Listing of entries alongside the reported pKd.
Scale: negative log10 of molar concentration, which is what pKd denotes.

Take a look at these entries with their results.
binder="anti-PACAP antibody Ab19 (antibody, human IgG1, kappa, N297A, V domains shown, full-length rabbit/human chimeric antibody) VH: QSVEASGGRLVTPGTPLTLTCTVSGFSLSSATMNWVRQAPGKGLEWIGLIGGNDERYYASWAKGRFTISKTSSTTVDLKMTSPTTEDTATYFCARGGGEFFIWGPGTLVTVSS VL: AQVLTQTPSSVSAAVGGTVTINCQSSESVYTNDRLSWYQQKPGQPPKLLIYEASKLASGVPPRFSGSGSGTQFTLTISDLECDDAATYYCAGAYSTSIHGFGGGTEVVVKR" numeric_value=10.03
binder="anti-PACAP antibody Ab5.H (antibody, human IgG1, kappa, N297A, V domains shown, humanized form of Ab5, full length) VH: EVQLVESGGGLVQPGGSLRLSCAASGFSLSSYAMIWVRQAPGKGLEWVGIIYDNGDTYYASSAKGRFTISRDNSKNTVYLQMNSLRAEDTAVYFCAREPGSTTQNDLWGQGTLVTVSS VL: DVQMTQSPSTLSASVGDRVTITCQASENIYNSLLWYQQKPGKAPKLLIYRASTLASGVPSRFSGSGSGTEFTLTISSLQPDDFATYYCQNYYNIWTNGAAFGGGTKVEIKR" numeric_value=10.51
binder="anti-PACAP antibody Ab9 (antibody, human IgG1, kappa, N297A, V domains shown, full-length rabbit/human chimeric antibody) VH: EQSGGGAEGGLVKPGGSLKLSCKASGFTISRDYWICWVRQAPGKGLEWIGCISAGGGSTDYANWVNGRFTLSRDIDQSTGCLQLNSLTDADTAMYYCAGNLEIWGQGTLVTVSS VL: AQVLTQTPSSVSAAVGGTVTINCQSSPSIYSGAFLSWFQQKPGQPPKFLIYEASKLASGVPSRFSGSGSGTQFTLTISDVQCDDAATYYCLGFYDCSSVDCHAFGGGTEVVVKR" numeric_value=9.85
binder="anti-PACAP antibody Ab23 (antibody, human IgG1, kappa, N297A, V domains shown, full-length rabbit/human chimeric antibody; PACAP38 specific) VH: QSVEESGGRLVTPGTPLTLTCTVSGFSLNNYAMSWVRQAPGKGLEWIGIMGVNDITYYASWAKGRFTISKTSTTVDLKMTSLTTEDTATYFCTREIRDDGDSSDKLWGPGTLVTVSS VL: AIKMTQTPSSVSAAVGGTVTINCQASEDIYTNLAWYQQKPGQPPNLLIYDASDLASGVPSRFSGSGDGTQFTLTISAVQCEDAATYYCQGVAWSSNTGYGSAFGGGTEVVVKR" numeric_value=10.15

Next:
Exam item: Which pKd reading was recorded for the binder anti-PACAP antibody Ab15 (antibody, human IgG1, kappa, N297A, V domains shown, full-length rabbit/human chimeric antibody) VH: QSVEASGGHLVTPGTPLTLTCTVSGFSLSSAAMNWVRQAPGKGLEWIGSVDERQNKYYASWAKGRFTISRTSSTTVNLKMTSPTTEDTATYFCARGGGEFFIWGQGTLVTVSS VL: AQVLTQTPSSVSAAVGGTVTINCQSSQSVYSNNRLSWYQQKPGQPPNLLIYEASSLASGVPSRFSGSGSGTQFTLTISDLECDDAATYYCAGAYNTGIYGFGGGTEVVVKR ?
Marked response: 10.30
